meta.source: PubChem BioAssay (NCI)

System: OVCAR-4 ovarian
Assay: NCI-60 one-dose screen, 48 h (100 = growth as untreated, 0 = no growth, -100 = all killed)
Conditions: 10 µM unless noted
This is part of a sample that, as a whole, favours compounds with a hit. Of some 83,000 tested, about 20% had one in any assay.
Entries whose growth is below 70% take Met; entries at or above 70% take Not met.

Molecule: CCCOc1cc2ccccc2cc1C(=O)Nc1nc(N)c2c(ccc3nccc32)[nH]1
Assigned Class: Met

Molecule: CN(C)C(=S)N=Nc1c(O)[nH]c2ccccc12
Assigned Class: Met

Molecule: CNC(=O)c1cc(Oc2ccc(NC(=O)Nc3ccc(Cl)c(OC(F)(F)F)c3)c(F)c2)ccn1
Assigned Class: Met

Molecule: COC(=O)c1ccc2oc(NC(=O)c3ccc(Nc4ccc([N+](=O)[O-])cc4C)c([N+](=O)[O-])c3)nc2c1
Assigned Class: Not met

Molecule: O=C1c2ccccc2C(=O)c2c(N=Nc3[nH]c(=S)[nH]c3O)cccc21
Assigned Class: Met

Molecule: COc1ccc(CN2c3ccccc3Oc3ccccc32)cc1O
Assigned Class: Met

Molecule: Cc1ccc2c(C(C[N+](=O)[O-])c3ccco3)c(-c3ccccc3)[nH]c2c1 (stereo unspecified)
Assigned Class: Met

Molecule: O=C1/C(=C/c2cn(-c3ccccc3)nc2-c2ccccc2)SC(=S)N1CCc1ccccc1
Assigned Class: Not met

Molecule: COc1cc(-c2nc3ccccc3[nH]2)ccc1OCC(=O)N=Nc1c(O)[nH]c2ccc(Cl)cc12
Assigned Class: Met

Molecule: CCCOc1ccc2nc(NC(=O)OC)[nH]c2c1
Assigned Class: Met

Molecule: COc1cc(/C=C/C(=O)Nc2cccnc2Nc2ccc(F)cc2)cc(OC)c1OC
Assigned Class: Not met

Molecule: O=C(N/N=C/c1c[nH]c2ccccc12)c1cc(-c2ccccc2)on1
Assigned Class: Not met

Molecule: CCOC(=O)c1sc2nc(-c3cccc(O)c3)nc(N3CCOCC3)c2c1C
Assigned Class: Met

Molecule: Cc1cc(N2CCOCC2)nc(N[C@@H]2CCC[C@H](Nc3ccnc4cc(Cl)ccc34)C2)n1
Assigned Class: Met

Molecule: CN1C(=O)C2(SCC(C(=O)NCc3ccccc3)N2C(=O)C2CCCCC2)c2ccccc21 (stereo unspecified)
Assigned Class: Not met

Molecule: CCCCCCN(CCCCCC)C(=N)c1ccnc2ccccc12
Assigned Class: Met

Molecule: CC(C)c1c(C(=O)c2ccccc2)c(-c2ccccc2)c(-c2ccc(F)cc2)n1CC[C@@H](O)C[C@@H](O)CC(=O)O
Assigned Class: Not met

Molecule: CC(O)CN(CC(C)O)c1ccc2c(c1)Cc1cc([N+](=O)[O-])ccc1-2 (stereo unspecified)
Assigned Class: Not met

Molecule: CSc1nc(-c2cccc(NC(=O)CCl)c2)c(C#N)c(=O)n1C
Assigned Class: Met

Molecule: COc1ccc(SC2c3ccc(C)cc3Oc3nc(N)c(C#N)c(N)c32)cc1 (stereo unspecified)
Assigned Class: Met

###

Tested on: SK-MEL-2 melanoma
Test: NCI-60 one-dose screen, 48 h
Settings: 10 µM unless noted
This is part of a sample that, as a whole, favours compounds with a hit. Of some 83,000 tested, about 20% had one in any assay. Active and inactive are the calls of the source. Rule for the calls: active = growth percent below 10; inactive = the rest.
Labels: active, inactive

Structure String: CCOC(=O)c1sc2nc(-c3cccc(OC)c3)nc(N3CCOCC3)c2c1C
Assigned Class: inactive
--
Structure String: CC/C=C\C[C@H](O)C/C=C1/C(=O)C=C[C@@]1(C)C/C=C\CCCC(=O)OC
Assigned Class: inactive
--
Structure String: Cc1nn(-c2cc(=O)[nH]c3ccccc23)c(N)c1C#N
Assigned Class: inactive
--
Structure String: CCN(CC)CCCCNc1c2ccc(Cl)cc2nc2ccc(OC)cc12
Assigned Class: active
--
Structure String: CSc1nc(NCc2ccccc2)c(C#N)c(-c2cccc([N+](=O)[O-])c2)n1
Assigned Class: inactive
--
Structure String: NC(=O)c1cc(Br)ccc1NC(=O)/C=C/c1ccccc1
Assigned Class: inactive
--
Structure String: COc1ccc(-c2cc(=O)c3c(OC)c4ccoc4cc3o2)cc1
Assigned Class: inactive
--
Structure String: CC1=C[C@H]2c3c(c(O)c(O)c4oc5c(C)cccc5c(=O)c34)[C@H](c3cc(O)c(O)c4oc5c(C)cccc5c(=O)c34)[C@H]2C(C)(C)C1
Assigned Class: inactive
--
Structure String: COc1cccc(-c2nc3sccn3c2-c2ccnc(NCCCNS(=O)(=O)c3cccc(Cl)c3)c2)c1
Assigned Class: inactive
--
Structure String: CC(=O)c1nc2ccccc2n1CC(=O)c1cccc(Cl)c1
Assigned Class: inactive
--
Structure String: COc1cc(-c2nc3ccccc3[nH]2)ccc1OCc1nnc(-c2ccc(CC(C)C)cc2)o1
Assigned Class: inactive
--
Structure String: N#Cc1c(N)n(CCNC(=O)c2ccccc2)c2nc3ccccc3nc12
Assigned Class: inactive
--
Structure String: COc1ccc(/C=C2\Oc3cc(OCCCCN4CCCC4)ccc3C2=O)cc1
Assigned Class: inactive
--
Structure String: CN1CCN(CCCOc2cccc3nc(Nc4ccc(Cl)c(F)c4)ccc23)CC1
Assigned Class: inactive
--
Structure String: CC(C)(CCCN=C(N)Nc1ccc(Cl)cc1)c1ccc(F)cc1
Assigned Class: inactive
--
Structure String: Cn1c(O)c(N=NC(=O)c2cc(-c3ccccc3)on2)c2ccccc21
Assigned Class: inactive
--
Structure String: Cn1ccnc1C(=O)/C=C/c1ccc(CC(=O)Nc2ccccc2)cc1
Assigned Class: inactive
--
Structure String: COc1cc(/C=C/C(=O)c2ccc(O)c(CN3CCN(c4cc5c(cc4F)c(=O)c(C(=O)O)cn5C4CC4)CC3)c2)cc(OC)c1OC
Assigned Class: inactive
--
Structure String: Cc1cc(C)nc(SC2=C(Nc3ccc(O)cc3)C(=O)N(Cc3ccccc3)C2=O)n1
Assigned Class: inactive
--
Structure String: O=c1c(F)cn(Cc2ccccc2CCl)c(=O)n1Cc1ccccc1CCl
Assigned Class: active

###

Tested on: RPMI-8226 leukemia
Assay: NCI-60 one-dose screen, 48 h (100 = growth as untreated, 0 = no growth, -100 = all killed)
Conditions: 10 µM unless noted
Protocol: Growth inhibition of the RPMI-8226 human tumor cell line is measured as a screen for anti-cancer activity. Cells are grown in 96 well plates and exposed to the test compound for 48 hours. Compounds are tested at a single concentration, which is 10^-5 M for most compounds. The reported endpoint is percent growth (GI% or GIPRCNT), where numbers from 0 - 100% represent growth inhibition, and numbers from -100% - 0 represent cell death. For example, a value of 40 represents 60% growth inhibition. […]
The panel holds about 83,000 compounds, 20% with a hit somewhere; the sample as a whole holds those more often. Active and inactive are the calls of the source. The calls were made as follows: active = growth percent below 10; inactive = the rest.
Items are presented alongside their recorded growth.

Molecule: Fc1ccc(CNc2cccc3[nH]c(C(F)(F)F)nc23)cc1
growth: 36.5% (inactive)

Molecule: CC(C)C1=C[C@@]23CC[C@@H]4[C@](C)(CCC[C@@]4(C)C(=O)N4CCCNCC4)[C@H]2C[C@@H]1[C@H]1C(=O)CCC(=O)[C@H]13
growth: 100% (inactive)

Molecule: O=C1c2ccccc2C(=O)c2c1ccc1[nH]c(-c3cccs3)nc21
growth: 63.7% (inactive)

Molecule: COc1ccc(-c2cc(C(=O)N=Nc3c(O)[nH]c4ccc(Br)cc34)no2)cc1
growth: 107% (inactive)

Molecule: COc1ccc(-n2nc(C)c3c(Nc4ccc(NC(=O)Nc5c(Cl)cccc5Cl)cc4)ncnc32)cc1
growth: 50.7% (inactive)

Molecule: CCOc1cc2c(cc1OCC)C(c1cc(OC)c(O)cc1Cl)NCC2 (stereo not drawn)
growth: 94% (inactive)

Molecule: OC(c1cc2cc(Cl)c(Cl)cc2c2cc(C(F)(F)F)ccc12)C1CCCCN1 (stereo not drawn)
growth: -37.1% (active)

Molecule: CCCc1cc(=O)n2c(C(=O)Nc3cccc(C(=O)OCC)c3)c(C(=O)Nc3ccc(F)cc3)sc2n1
growth: 57% [30 µM] (inactive)

Molecule: O=C(/C=C/c1cccc(Cl)c1)c1ccc(O)c(CN2CCN(c3cc4c(cc3F)c(=O)c(C(=O)O)cn4C3CC3)CC2)c1
growth: 4.11% (active)

Molecule: O=C(Nc1ccccc1Cl)c1ccc(NC2=C(Cl)C(=O)N(C3CCCCC3)C2=O)cc1
growth: 23.6% [30 µM] (inactive)

Molecule: Fc1ccc2[nH]cc(SSc3c[nH]c4ccc(F)cc34)c2c1
growth: -14% (active)

Molecule: CCN(CC)c1ccc(/C=N\NC(=O)/C=C/C=C/c2ccc3c(c2)OCO3)c(O)c1
growth: 53.6% (inactive)

Molecule: CCCCN1CCCn2c1nc1c2c(=O)n(CCC)c(=O)n1CCC
growth: 110% (inactive)

Molecule: N#C/C(=C\c1ccc(-c2cc(C(F)(F)F)ccc2Cl)o1)c1nc(-c2ccco2)cs1
growth: 101% (inactive)

Molecule: COc1cc(/C=C/c2cc(/C=C/c3ccc(O)c(OC)c3)n(-c3c(Cl)cccc3Cl)c(=O)n2)ccc1O
growth: 0.562% (active)

Molecule: Cc1nc2ccccc2n1C(=O)C[C@@H]1NC(=S)NC1=O
growth: 111% (inactive)

Molecule: O=C1OC(c2ccccc2)C(O)=C1c1ccccc1 (stereo not drawn)
growth: 96.5% (inactive)

Molecule: COc1cc(-c2nc3ccccc3[nH]2)ccc1OCC(=O)N=Nc1c(O)[nH]c2ccc(Cl)cc12
growth: -39.4% (active)

Molecule: CSc1ccc(SC2c3ccc(C)cc3Oc3nc(N)c(C#N)c(N)c32)cc1 (stereo not drawn)
growth: -38% (active)

Molecule: Cc1ccc(C2Oc3ccccc3C3CC(c4cccs4)=NN32)cc1 (stereo not drawn)
growth: 95.3% (inactive)

Molecule: Cc1[nH]c(-c2cc(N)ccc2Cl)c2c1C(=O)CCCC2
growth: 12.7% (inactive)

Molecule: CCc1nc(N)nc(N)c1C#CC(C)c1ccc(-c2ccncc2)cc1Cl (stereo not drawn)
growth: 15.1% (inactive)

Molecule: Cc1cc(Nc2ccc(C)c(Cl)c2)n2nc(C(F)(F)F)nc2n1
growth: 51.6% (inactive)

Molecule: NCCNc1nc(Nc2ccc(-c3nc4ccccc4[nH]3)cc2)c2cn[nH]c2n1
growth: -11.7% (active)

Molecule: Cn1c(=O)c2c(nc3n(-c4ccc(Cl)cc4Cl)c(Sc4nc(-c5ccccc5)c(C#N)c(=O)[nH]4)cn23)n(C)c1=O
growth: 59.3% (inactive)

Molecule: C=C(C)[C@@H]1CC[C@]2(C(=O)OC)CC[C@]3(C)[C@H](CC[C@@H]4[C@@]5(C)C/C(=C/c6ccc(OC)cc6)C(=O)C(C)(C)[C@@H]5CC[C@]43C)[C@@H]12
growth: 54.8% (inactive)

Molecule: COc1cc(/C=C/C(=O)c2cccnc2Nc2ccc(F)cc2)cc(OC)c1OC
growth: 1.24% (active)

Molecule: O=C(Cc1ccc(/C=C/C(=O)c2ncc[nH]2)cc1)Nc1ccccc1
growth: -0.0972% (active)

Molecule: CC/C=C\C[C@H]1C/C=C2/C(=O)C=C[C@H]2C/C=C\CCCC(=O)O1
growth: -10% (active)

Molecule: C=C(C)C1CC(O)C2(C)CCCC3C2C1CC(C)C3(C)CC/C(C)=C/C(O)C1CCC(=O)c2c(OC)cc(OC)cc21 (stereo not drawn)
growth: 6.09% (active)

Molecule: C#CCOc1ccc2ncnc(Nc3cccc(CNC(=O)CCl)c3)c2c1
growth: 37.7% [8.25 µM] (inactive)

Molecule: Clc1ccc2c(NCCCCNc3nc(N4CCOCC4)nc4ccccc34)ccnc2c1
growth: -32.2% (active)

Molecule: COc1cc(-c2nc(C(=O)NCC(=O)NO)nn2-c2ccc(Cl)cc2)cc(OC)c1OC
growth: 105% (inactive)

Molecule: O=c1c(F)cn(Cc2ccccc2CCl)c(=O)n1Cc1ccccc1CCl
growth: -48.6% (active)

Molecule: CC(=O)O[C@H]1CC[C@]2(C)[C@H]3CC=C4[C@@H]5CC(C)(C)CC[C@]5(C(=O)NCCNCCN)CC[C@@]4(C)[C@]3(C)CC[C@H]2C1(C)C
growth: -44.4% (active)

Molecule: COc1ccccc1Nc1nc(-c2cc3cccc(C(F)(F)F)c3oc2=O)cs1
growth: 16.8% (inactive)

Molecule: CCCOc1cc2ccccc2cc1C(=O)Nc1nc(NC)c2c(ccc3nccc32)[nH]1
growth: -46% (active)

Molecule: COc1cc(-c2nn(C)nc2-c2cc3ccccc3s2)cc(OC)c1OC
growth: 20.7% (inactive)
